SYSTEM TESTED: c-Src SH2;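 note: peptide library displayed on the E. coli surface as eCPX fusions, selected cells deep-sequenced, score is each peptide's frequency after selection divided by its frequency in the input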
PROTOCOL: SH2 binding enrichment of the phosphorylated peptide, bacterial display (enrichment ratio); higher = better substrate or ligand; peptides without Tyr show the background
Okay, here is how we bin by SH2 binding enrichment: bin 1 = under 0.6, bin 2 = from 0.6 up to 0.8, bin 3 = 0.8 and over

Observe how each entry below is paired with its result.
LLLLFYVVRYC [MPZ_Y177]
bin 3
ADSLRYIFPKL [EIF2B3_Y92_YF]
bin 2
KTDVRYRSLGG [DYSF_Y1858_H1857R]
bin 1
RLDRSYSYSYS [PEAR1_Y890]
bin 3

query: Looking at NAGDYYDLYGG [PTPN11_Y63_T59A] , which class would you pick?
result: bin 2

query: Category lookup for the sequence QKKEEYKMALY [F8_Y1990_R1985Q]
result: bin 1

query: Assign a bin to ELAKFYKLHHI [AK7_Y391_N389K_YF]
result: bin 1

query: Category of VTPVMYTFDEF [COL10A1_Y623_G618V_YF] , please.
result: bin 2

query: Which class does YEDALYTVLHR [UNC13D_Y61] fall in?
result: bin 3

* * *

SYSTEM TESTED: FGFR1 (UniProt P11362)
Sequence (P11362 whole entry, looked up): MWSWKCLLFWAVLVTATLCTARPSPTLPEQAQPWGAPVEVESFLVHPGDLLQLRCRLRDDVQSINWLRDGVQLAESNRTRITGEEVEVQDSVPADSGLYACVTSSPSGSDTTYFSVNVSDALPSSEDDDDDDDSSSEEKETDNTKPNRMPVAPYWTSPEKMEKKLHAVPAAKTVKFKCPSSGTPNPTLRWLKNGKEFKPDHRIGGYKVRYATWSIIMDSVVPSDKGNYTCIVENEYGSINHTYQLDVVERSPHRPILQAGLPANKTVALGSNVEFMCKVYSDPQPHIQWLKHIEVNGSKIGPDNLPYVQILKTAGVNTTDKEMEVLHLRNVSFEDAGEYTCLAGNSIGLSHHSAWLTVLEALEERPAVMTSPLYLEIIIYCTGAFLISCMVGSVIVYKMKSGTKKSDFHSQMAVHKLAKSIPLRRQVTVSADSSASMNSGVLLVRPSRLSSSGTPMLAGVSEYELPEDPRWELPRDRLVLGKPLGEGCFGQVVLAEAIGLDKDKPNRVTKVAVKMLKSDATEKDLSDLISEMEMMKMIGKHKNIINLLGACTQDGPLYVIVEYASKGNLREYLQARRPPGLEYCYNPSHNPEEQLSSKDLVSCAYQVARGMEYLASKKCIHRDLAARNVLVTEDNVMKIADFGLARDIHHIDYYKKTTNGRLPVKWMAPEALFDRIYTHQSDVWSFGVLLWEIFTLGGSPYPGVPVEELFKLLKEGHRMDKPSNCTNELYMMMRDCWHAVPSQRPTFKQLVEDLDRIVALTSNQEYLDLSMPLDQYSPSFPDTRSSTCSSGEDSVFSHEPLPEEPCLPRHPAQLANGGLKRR
PROTOCOL: phosphorylation enrichment, bacterial display (enrichment ratio); higher = better substrate or ligand; peptides without Tyr show the background
Quick reference for phosphorylation enrichment among some sequences
// no unit, no text: just the number

Example sequences with recorded phosphorylation enrichment:
TSFSGYRCHRH [NKAPL_Y94_Y96C_YF]
0.552
FETSHYLASPD [CTNND2_Y1217_P1218L_YF]
0.568
ATAKGYEPDAS [OTC_Y223_P220A]
0.481
SPRDTYSDRSG [CTPS1_Y567]
0.382
YRAPGYREVVI [TNS2_Y673]
0.52
TRSFKYLLLSM [NF1_Y491_YF]
0.43
CKSVHYDLVFL [COL22A1_Y37]
0.532
VDEVLYEDSSA [MTHFS_Y197_T202A]
0.679
EACRSYSHVVL [CHST6_Y168]
0.533
GHGEEYPVAGA [NOTCH3_Y2221_A2223V]
0.481

query: What phosphorylation enrichment value was documented for this sequence, KKMKCYHVGKV [HARS2_Y151_R150C] ?
result: 0.395

query: Using the record for NKEAIYSGYIR [SMCHD1_Y283] , report its phosphorylation enrichment.
result: 0.565

query: Using the record for QFLMKYVRSAS [ABCD1_Y337_W339R] , report its phosphorylation enrichment.
result: 0.431

query: Tell me the measured phosphorylation enrichment of KTDKKYLMIKE [BAG3_Y451_E455K] , please.
result: 0.423

* * *

SYSTEM TESTED: FGFR1 (UniProt P11362)
PROTOCOL: phosphorylation enrichment, bacterial display (enrichment ratio); higher = better substrate or ligand; peptides without Tyr show the background
PARAMETER MEASURED: phosphorylation enrichment
Please respond with just the number, no unit label.

# annotated cases, reported phosphorylation enrichment shown
DRIVNYSRASI [ATP7A_Y1459]
0.423
TEAEPYFCSLR [NPHS1_Y1138_R1140C_YF]
0.551
KGSLPYNLILD [PKD1L2_Y406]
0.552
MANFMYKAGPS [MAML2_Y515_YF]
0.378
SSMIDYNTLEK [MYOC_Y479_P481T]
0.401

query: Need phosphorylation enrichment, item ESDFPYSSSFE [SRPK2_Y427_T426P_YF]
result: 0.619
